- Test system: MCF7 breast
- assayOverview: NCI-60 one-dose screen, 48 h (100 = growth as untreated, 0 = no growth, -100 = all killed)
- measurementConditions: 10 µM
The panel holds about 83,000 compounds, 20% with a hit somewhere; the sample as a whole holds those more often.
propertyName: growth (%)

# molecule, obsValue
records = [
    ("N#Cc1ccc(-c2nn(-c3ccc(C(=O)O)cc3)cc2CNc2ccc(Cl)cc2)cc1", 70.8),
    ("O=C1CCC(N2Cc3c(NCc4ccc(-c5ccccc5)cc4)cccc3C2=O)C(=O)N1 (centres undefined)", 76),
    ("COc1ccccc1[C@H]1C(C(=O)c2ccc(Cl)cc2)C2(N[C@@H]1c1ccccc1)C(=O)Nc1ccccc12 (some centres undefined)", -11.1),
    ("Cc1ccc(C(=O)NCCCNc2nc(Nc3ccc(N4CCN(C)CC4)cc3)nc3ccsc23)cc1", 16.6),
    ("[2H]C([2H])([2H])Oc1ccc2ncc(C#Cc3cncc(C(=O)Nc4ccc(CN5CCN(C)CC5)c(C(F)(F)F)c4)c3)n2n1", -61),
    ("COc1ccc2c(c1)N=C(C(=O)O)/C2=C/c1sc(Nc2ccc(O)cc2)nc1O", 27.9),
    ("Cc1cc(C(F)(F)F)ccc1C(=O)Nc1sc2c(c1C#N)CCC(=O)C2", 2.31),
    ("C=C1CCC2C3(C)COC(c4c(F)cccc4F)OC3CCC2(C)C1C/C=C1/C(=O)OCC1O (centres undefined)", -12.6),
    ("CC(=C(c1ccc(OCCN2CCCCCC2)cc1)c1ccc(OCCN2CCCCCC2)cc1)c1ccc(Cl)cc1", -79.6),
]

* * *

- System: A549/ATCC NSCLC
- assayOverview: NCI-60 one-dose screen, 48 h (100 = growth as untreated, 0 = no growth, -100 = all killed)
- measurementConditions: 10 µM
About 83,000 compounds went through this panel and 20% of them were active in at least one assay; those are over-represented in the sample as a whole.

# compound, growth / %
measured = [
    ("CN1CCN(c2ccc(Nc3nc(N4CCN(S(=O)(=O)c5ccc(Cl)cc5)CC4)c4sccc4n3)cc2)CC1", 22),
    ("CC(=C(c1ccc(OCCCN(C)C)cc1)c1ccc(OCCCN(C)C)cc1)c1ccccc1", -73.1),
    ("CCCS(=O)(=O)c1oc(-c2ccc(F)cc2)nc1S(=O)(=O)c1ccc(F)cc1", 82.5),
    ("Cc1ccc(CNC(=O)Cc2ccc3c(c2)CN(C2CCC(=O)NC2=O)C3=O)cc1 (centres undefined)", 10.6),
    ("CCOC(=O)c1sc(N/N=C(\\C)c2ccc3c(c2)Nc2ccccc2S3)nc1C", 29.2),
    ("Cc1ccc(/C=C(\\C#N)n2nnc3c(F)cccc32)cc1", -3),
    ("CCCCCc1ccc(S(=O)(=O)N(C(C)=O)c2cc(-c3csc(N(C)C(C)=O)n3)ccc2N2CCN(C)CC2)cc1", 40.1),
    ("Cc1ccc(-c2nc3ccc(C(=O)N=Nc4c(O)[nH]c5ccc(Br)cc45)cc3[nH]2)cc1", 87.1),
    ("COC(=O)c1c(C(=O)OC)c2n(c1C)[C@@H]([C@@H](C)[C@H]1CC[C@H]3[C@@H]4CCC5=CC(=O)CC[C@]5(C)[C@H]4CC[C@]13C)SC2", 37.1),
]

* * *

- Tested on: SN12C renal
- assayOverview: NCI-60 one-dose screen, 48 h
- measurementConditions: 10 µM
This is part of a sample that, as a whole, favours compounds with a hit. Of some 83,000 tested, about 20% had one in any assay. Activity calls are given as the source filed them. The calls were made as follows: active = growth percent below 10; inactive = the rest.
Outcome codes: y for active, n for inactive

# smilesCode, labelClass
measured = [
    ("Cc1cccc2cc(-c3cc(-c4ccccc4)nc(=O)[nH]3)c(Cl)nc12", "n"),
    ("O=C(Nc1cc(Cl)cc(Cl)c1)Nc1cc(Cl)cc(Cl)c1", "y"),
    ("Cc1ccc(-c2cc(C(=O)N=Nc3c(O)[nH]c4ccccc34)c3ccccc3n2)cc1", "y"),
    ("COc1cc2c3c(n(CCCN4CCOCC4)c(=O)c2cc1OC)-c1nc2c(cc1C3=O)OCO2", "y"),
    ("COc1nccnc1NS(=O)(=O)c1ccc(NC2=C(Cl)C(=O)c3nc(C)ccc3C2=O)cc1", "n"),
    ("CN1CCN(c2ccc(C(=O)/C=C/c3cc(Br)ccc3F)cc2)CC1", "n"),
    ("COc1ccc(NC(=O)Cn2c(/C=C/c3ccc(N(C)C)cc3)nc3ccccc3c2=O)cc1", "n"),
    ("C[C@H]1[C@H](C)CC[C@]2(COC(=O)CCC(=O)NCC#CCN3CCNCC3)CC[C@]3(C)C(=CC[C@@H]4[C@@]5(C)CCCNC(C)(C)[C@@H]5CC[C@]43C)[C@H]12", "n"),
    ("Nc1nc(Nc2ccccc2)nn1Cc1c(Cl)cccc1Cl", "n"),
    ("CN(CCO)c1oc(-c2ccccc2)nc1[P+](c1ccccc1)(c1ccccc1)c1ccccc1", "y"),
]

* * *

In this section we review reported growth values for a set of compounds.
- System: HCC-2998 colon
- assayOverview: NCI-60 one-dose screen, 48 h (100 = growth as untreated, 0 = no growth, -100 = all killed)
- measurementConditions: 10 µM
This is part of a sample that, as a whole, favours compounds with a hit. Of some 83,000 tested, about 20% had one in any assay.
propertyName: growth (%)

# compound, subjectOfTest, propertyName, obsValue
rows = [
    ("COc1ccc2[nH]c(O)c(N=NC(=O)COc3ccc(NC(=O)Nc4ccc(Cl)c(Cl)c4)cc3)c2c1", "HCC-2998 colon", "growth", -67.4),
    ("O=C(NO)c1ccc(CN2CCN(c3nc(-c4ccccc4)c4ccccc4n3)CC2)cc1", "HCC-2998 colon", "growth", 12.6),
    ("COc1ccc(N(C)c2cc(C#N)nc3ccccc23)cc1N", "HCC-2998 colon", "growth", 7.99),
    ("O=C(CSc1nnc(-c2c[nH]c3ccccc23)n1-c1ccccc1)c1ccc(Br)cc1", "HCC-2998 colon", "growth", 31.7),
    ("CC(=C(c1ccc(OCCN2CCCCCC2)cc1)c1ccc(OCCN2CCCCCC2)cc1)c1ccc(Cl)cc1", "HCC-2998 colon", "growth", -97.8),
    ("CCN1CCN(Cc2ccc(NC(=O)c3cccc(-n4cc(-c5ccc(NC(C)=O)nc5)nn4)c3)cc2C(F)(F)F)CC1", "HCC-2998 colon", "growth", 115),
    ("COc1cc2c(c(OC)c1OC)C(=O)CC(c1cccc(NC(=O)c3cccc(N)c3)c1)O2 (centres undefined)", "HCC-2998 colon", "growth", 114),
    ("N#Cc1c(-c2ccc(F)cc2)nc(SCc2ccc([N+](=O)[O-])cc2)nc1N1CCOCC1", "HCC-2998 colon", "growth", 90.7),
    ("Cc1ccc(-c2nc(Nc3ccccc3C(=O)O)c3ccccc3n2)cc1", "HCC-2998 colon", "growth", 5.44),
]

* * *

- Tested on: M14 melanoma
- assayOverview: NCI-60 one-dose screen, 48 h
- measurementConditions: 10 µM
The panel holds about 83,000 compounds, 20% with a hit somewhere; the sample as a whole holds those more often. Calls of active or inactive are those of the source. Rule for the calls: active = growth percent below 10; inactive = the rest.
Outcome codes: 1 (active), -1 (inactive)

# compound, labelClass
data = [
    ("COc1cc2c3c(n(CCCNCCO)c(=O)c2cc1OC)-c1nc2c(cc1C3=O)OCO2", -1),
    ("CN1CCc2c(sc3ncnc(N/N=C/c4cn(-c5ccccc5)nc4-c4ccc(Br)cc4)c23)C1", -1),
    ("COc1cc(/C=C/C(=O)c2ccc(S(=O)(=O)NCCNc3nc(Nc4ccc(F)cc4)nc(N(C)C)n3)cc2)cc(OC)c1OC", 1),
    ("COc1ccc2[nH]c(O)c(N=NC(=O)COc3ccc(NC(=O)Nc4ccc(Cl)cc4)cc3)c2c1", 1),
    ("COc1ccccc1[C@H]1C(C(=O)c2ccc(O)cc2)C2(N[C@@H]1c1ccccc1)C(=O)Nc1ccc(Br)cc12 (stereo partly drawn)", -1),
    ("COc1ccc(C(=O)NC(=S)N2CCN(c3ncnc4c3cnn4-c3ccccc3)CC2)cc1", -1),
    ("CN(C)c1nc(NCCNS(=O)(=O)c2ccc(C(=O)/C=C/c3ccccc3)cc2)nc(Nc2ccc(F)cc2)n1", 1),
    ("Cc1cc(C)nc(NS(=O)(=O)c2ccc(N/C(N)=N/c3nccc(-c4ccccc4)n3)cc2)n1", -1),
    ("COC1CC(Cn2cc(COc3ccc4ccc(=O)oc4c3)nn2)C(OCc2ccccc2)C(OCc2ccccc2)C1OCc1ccccc1 (stereo not drawn)", -1),
    ("O=C(CNc1nc(-c2ccccc2)cs1)Nc1ccc([N+](=O)[O-])cc1", -1),
    ("CN(C)CCNC(=O)OCCCCOc1cc(O)c2c(=O)cc(-c3ccccc3)oc2c1", 1),
    ("CN(C)c1ccc(/C=C/c2nc3ccccc3c(=O)n2CC(=O)Nc2ccccc2)cc1", -1),
    ("O=C(/C=C/Nc1ccccc1)c1ccc2c(c1)Nc1ccccc1S2", -1),
    ("COc1cccc(COc2ccc(/C=C3\\Oc4cc(O)ccc4C3=O)cc2)c1", -1),
    ("O=C(Nc1cccc(-c2cn(-c3ccc4oc(=O)ccc4c3)nn2)c1)Nc1cc(C(F)(F)F)cc(C(F)(F)F)c1", -1),
    ("Nc1nc(Nc2ccc(Cl)cc2)nn1Cc1cccc(Br)c1", -1),
    ("COc1ccc([C@H]2C(C(=O)c3ccc(Cl)cc3)C3(N[C@@H]2c2ccccc2)C(=O)Nc2ccc(Br)cc23)cc1 (stereo partly drawn)", -1),
    ("COc1ccc(NC(=O)CSc2nnc(-c3ccc4nc(-c5ccc(Cl)cc5)[nH]c4c3)o2)cc1", -1),
]
